Property Label: melting point (°C)
Expressed in °C, but write only the number.

Some solved cases for reference:
Inquiry: State its melting point: CS(=O)(=O)c1ccc(-c2nc(C(F)(F)F)nn2-c2ccc(Br)cc2)cc1
Reply text: 198

Inquiry: State its melting point: COc1ccc(-n2nc(C(F)(F)F)nc2-c2ccc(S(C)(=O)=O)cc2)cc1
Reply text: 156

Inquiry: State its melting point: CS(=O)(=O)Nc1ccc(-n2nc(C(F)(F)F)nc2-c2ccc(S(C)(=O)=O)cc2)cc1
Reply text: 188

Inquiry: State its melting point: Cc1nc(-c2ccc(S(C)(=O)=O)cc2)n(-c2ccc(F)cc2)n1
Reply text: 180

Others:
Inquiry: State its melting point: COc1ccc(-n2nc(C)nc2-c2ccc(S(C)(=O)=O)cc2)cc1OC
Reply text: 186

Inquiry: State its melting point: Cc1nc(-c2ccc(S(C)(=O)=O)cc2)n(-c2ccc([N+](=O)[O-])cc2)n1
Reply text: 180

----------
# Target System: COX-1 (Ovis aries, UniProt P05979)
# Construct: Purified COX-1 from ram seminal vesicles; purchased Cayman Chemicals; host or cells: ram seminal vesicles (tissue-purified)
# Sequence (P05979 25-600): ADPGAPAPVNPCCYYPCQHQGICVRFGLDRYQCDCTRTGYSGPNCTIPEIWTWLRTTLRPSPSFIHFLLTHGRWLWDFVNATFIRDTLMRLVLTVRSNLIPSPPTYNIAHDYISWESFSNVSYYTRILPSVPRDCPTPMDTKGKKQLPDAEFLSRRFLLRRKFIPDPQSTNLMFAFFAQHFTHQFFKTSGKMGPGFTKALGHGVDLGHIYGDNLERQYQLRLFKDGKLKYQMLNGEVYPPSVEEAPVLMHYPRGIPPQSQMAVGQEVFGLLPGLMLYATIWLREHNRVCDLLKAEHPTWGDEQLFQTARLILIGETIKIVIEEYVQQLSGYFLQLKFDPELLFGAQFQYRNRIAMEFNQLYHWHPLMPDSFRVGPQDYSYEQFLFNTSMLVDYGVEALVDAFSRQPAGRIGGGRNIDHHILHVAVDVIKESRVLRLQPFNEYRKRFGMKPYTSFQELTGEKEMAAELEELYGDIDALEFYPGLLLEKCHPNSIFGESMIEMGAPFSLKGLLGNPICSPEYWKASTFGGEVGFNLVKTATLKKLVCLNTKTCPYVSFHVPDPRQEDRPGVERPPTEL
# Procedure Details: Inhibition of purified COX-1 activity in vitro (PGE2 by enzymo-immunoassay)
# Assay type: biochemical, ram
# Measurement Setup: concentration 1 μM; negative sign = inhibition
Quick reference for % COX-1 inhibition among some compounds
Expressed in %, but write only the number.

Some solved cases for reference:
Inquiry: State its % COX-1 inhibition: COc1ccc(-n2nc(C)nc2-c2ccc(S(C)(=O)=O)cc2)cc1 [Example 10]
Reply text: −4

Inquiry: State its % COX-1 inhibition: CS(=O)(=O)c1ccc(-c2nc(C(F)(F)F)nn2-c2ccc(Br)cc2)cc1 [Example 18]
Reply text: −5

Inquiry: State its % COX-1 inhibition: CS(=O)(=O)Nc1ccc(-n2nc(C(F)(F)F)nc2-c2ccc(S(C)(=O)=O)cc2)cc1 [Example 25]
Reply text: −5

Inquiry: State its % COX-1 inhibition: Cc1nc(-c2ccc(S(C)(=O)=O)cc2)n(-c2ccc(Cl)cc2)n1 [Example 3]
Reply text: −2

Others:
Inquiry: State its % COX-1 inhibition: COc1ccc(-n2nc(C(F)(F)F)nc2-c2ccc(S(N)(=O)=O)cc2)cc1 [Example 34]
Reply text: −16

----------
# Target System: COX-2 (Ovis aries)
# Construct: purified COX-2 from ewe placenta; purchased Cayman Chemicals; host or cells: ewe placenta (tissue-purified)
# Sequence (P79208 17-603): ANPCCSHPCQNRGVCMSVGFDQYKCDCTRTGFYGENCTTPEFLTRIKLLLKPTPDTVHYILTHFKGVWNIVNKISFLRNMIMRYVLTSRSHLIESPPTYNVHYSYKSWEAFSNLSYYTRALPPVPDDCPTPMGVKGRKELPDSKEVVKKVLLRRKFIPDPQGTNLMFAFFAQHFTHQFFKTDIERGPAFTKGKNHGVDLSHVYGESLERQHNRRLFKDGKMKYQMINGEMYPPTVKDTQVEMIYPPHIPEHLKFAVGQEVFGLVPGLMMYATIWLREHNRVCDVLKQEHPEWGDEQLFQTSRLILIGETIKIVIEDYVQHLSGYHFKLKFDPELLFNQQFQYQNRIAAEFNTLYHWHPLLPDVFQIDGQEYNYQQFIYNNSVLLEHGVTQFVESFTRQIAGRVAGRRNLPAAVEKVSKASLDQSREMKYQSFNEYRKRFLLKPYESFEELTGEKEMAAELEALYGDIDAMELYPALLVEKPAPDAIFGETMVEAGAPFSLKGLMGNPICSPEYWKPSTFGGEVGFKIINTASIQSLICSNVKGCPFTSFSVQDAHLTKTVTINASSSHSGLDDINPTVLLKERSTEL
# Procedure Details: Inhibition of purified COX-2 activity in vitro (PGE2 by enzymo-immunoassay)
# Type: biochemical, ewe
# Measurement Setup: concentration 1 μM; read-out: % COX-2 inhibition
Quick reference for inhibition at 1 µM among some compounds
Expressed in %, but write only the number.

Inquiry: State its inhibition at 1 µM: COc1ccc(-n2nc(C(F)(F)F)nc2-c2ccc(S(C)(=O)=O)cc2)cc1
Reply text: 44

Inquiry: State its inhibition at 1 µM: Cc1nc(-c2ccc(S(C)(=O)=O)cc2)n(-c2ccc(N(C)C)cc2)n1
Reply text: 18

Inquiry: State its inhibition at 1 µM: COc1ccc(-n2nc(C(F)(F)F)nc2-c2ccc(S(N)(=O)=O)cc2)cc1
Reply text: 78

Inquiry: State its inhibition at 1 µM: Cc1nc(-c2ccc(S(C)(=O)=O)cc2)n(-c2ccc(Cl)cc2)n1
Reply text: 19

Others:
Inquiry: State its inhibition at 1 µM: COc1ccc(-n2nc(C)nc2-c2ccc(S(C)(=O)=O)cc2)cc1
Reply text: 32

Inquiry: State its inhibition at 1 µM: CS(=O)(=O)Nc1ccc(-n2nc(C(F)(F)F)nc2-c2ccc(S(C)(=O)=O)cc2)cc1
Reply text: 31

Inquiry: State its inhibition at 1 µM: CS(=O)(=O)c1ccc(-c2nc(C(F)(F)F)nn2-c2ccc(Br)cc2)cc1
Reply text: 53
